target: CDK1:CCNB1 (Homo sapiens (Human), UniProt P06493); assay: NanoBRET assay in MCF-7 cells, CDK1; format: cell-based; settings: CDK1 IC50, NanoBRET, transfected MCF-7 cells, 2 hours; n = 1 or average
Sequence (P06493 whole entry): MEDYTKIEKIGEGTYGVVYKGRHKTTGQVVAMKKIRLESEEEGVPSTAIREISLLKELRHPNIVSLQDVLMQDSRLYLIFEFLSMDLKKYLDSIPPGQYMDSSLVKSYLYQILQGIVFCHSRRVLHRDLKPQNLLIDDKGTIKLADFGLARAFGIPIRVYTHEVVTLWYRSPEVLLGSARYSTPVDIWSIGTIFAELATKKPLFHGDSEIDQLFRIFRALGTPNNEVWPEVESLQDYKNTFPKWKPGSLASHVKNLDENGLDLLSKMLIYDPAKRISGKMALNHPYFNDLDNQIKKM
Sequence (P14635 whole entry partner): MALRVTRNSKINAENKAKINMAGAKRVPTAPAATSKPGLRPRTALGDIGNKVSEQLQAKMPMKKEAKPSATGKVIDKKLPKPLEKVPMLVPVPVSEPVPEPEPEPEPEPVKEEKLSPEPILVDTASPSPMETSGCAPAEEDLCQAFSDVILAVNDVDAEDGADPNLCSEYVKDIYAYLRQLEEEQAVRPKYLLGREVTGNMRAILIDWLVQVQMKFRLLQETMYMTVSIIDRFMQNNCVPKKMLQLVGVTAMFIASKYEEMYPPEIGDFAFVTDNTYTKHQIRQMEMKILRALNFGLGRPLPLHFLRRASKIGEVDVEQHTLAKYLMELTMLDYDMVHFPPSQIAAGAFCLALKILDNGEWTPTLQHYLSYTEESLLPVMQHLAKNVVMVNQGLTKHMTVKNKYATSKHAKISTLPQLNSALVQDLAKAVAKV
Measured IC50 accompanies every entry in the list below.
Output spec: scalar in nM, unitless text.

Example results:
CC[C@H](Nc1nc(N[C@H]2CCN(S(=O)(=O)NC)C2)c2ncn(CC)c2n1)C(C)=O [Example 45] :: 1890
CCNS(=O)(=O)N1CC[C@H](Nc2nc(N[C@@H](CC)C(C)=O)nc3c2ncn3CC)C1 [Example 7] :: 591

input: CDK1:CCNB1 (Homo sapiens (Human), UniProt P06493) / IC50 / CCNS(=O)(=O)N1CC[C@H](Nc2nc(N[C@H](CC)C(C)=O)nc3c2ncn3CC)C1 [Example 12] : value?
output: 7480

###

Measured HLM CLint accompanies every entry in the list below.
test: CLint assessment in human liver microsomes (HLM); type: in vitro ADME; conditions: 1 μM
Output spec: scalar in µL/min/mg, unitless text.

CC[C@H](Nc1nc(N[C@H]2CCN(S(=O)(=O)NC)C2)c2ncn(CC)c2n1)C(C)(C)O :: 76.6
CC[C@H](Nc1nc(N[C@H]2CCN(S(=O)(=O)NC[C@H]3COCCO3)C2)c2ncn(CC)c2n1)[C@@H](C)O :: 57.5

Let us move to another entry and its HLM CLint.
input: Can you look up the measured HLM CLint of `CCn1cnc2c(N[C@H]3CCN(S(=O)(=O)NC)C3)nc(-c3cccc4c3CC[C@H]4O)nc21` for me?
output: 61.6

###

test: CLint assessment in human liver microsomes (HLM); format: in vitro ADME; conditions: 1 μM
Measured HLM CLint accompanies every entry in the list below.
Output spec: scalar in µL/min/mg, unitless text.

Example results:
CC[C@H](Nc1nc(N[C@H]2C[C@@H](C)N(S(C)(=O)=O)C2)c2ncn(C(C)C)c2n1)[C@@H](C)O [Example 37] :: 143
CCNS(=O)(=O)N1C[C@@H](F)[C@H](Nc2nc(N[C@@H](CO)C3CC3)nc3c2ncn3C)C1 (relative stereo) [Example 26] :: 15.2
CCn1cnc2c(N[C@H]3CCN(S(=O)(=O)C4CC4)C3)nc(N[C@@H](CO)C(C)C)nc21 [Example 41] :: 177
CC[C@H](Nc1nc(N[C@H]2CCN(S(N)(=O)=O)C2)c2ncn(CC)c2n1)C(C)=O [Example 10] :: 17.6
CC(C)n1cnc2c(N[C@H]3CCN(S(C)(=O)=O)C3)nc(NC(CO)C3CCCO3)nc21 (stereo partly drawn) [Example 16] :: 96.5
CCn1cnc2c(N[C@H]3CCN(S(=O)(=O)NC)C3)nc(N[C@@H](C)[C@@H](O)C(F)(F)F)nc21 (single isomer, unassigned) [Example 50] :: 36.3
CCn1cnc2c(N[C@H]3CCN(S(=O)(=O)NC)C3)nc(-c3cccc4c3CC[C@]4(C)O)nc21 (relative stereo) [Example 3] :: 45.2
CC[C@H](Nc1nc(N[C@H]2CCN(S(=O)(=O)c3cnn(C)c3)C2)c2ncn(C(C)C)c2n1)[C@@H](C)O [Example 31] :: 154
CC[C@@H](CO)Nc1nc(N[C@H]2CCN(S(=O)(=O)NC)C2)c2ncn(CC)c2n1 [Example 48] :: 13.3
CCNS(=O)(=O)N1CC[C@H](Nc2cc(N[C@@H](CC)[C@@H](C)O)nc3c2ncn3CC)C1 [Example 60] :: 65.6

Let us move to another entry and its HLM CLint.
input: Can you look up the measured HLM CLint of CC[C@H](Nc1nc(N[C@H]2CCN(S(=O)(=O)NC[C@@H]3COCCO3)C2)c2ncn(CC)c2n1)[C@@H](C)O [Example 25] for me?
output: 61.6

Cited source: patent US20250197425A1
